target: T1, human insulin receptor isoform A with C-terminal C9 tag (human, UniProt P06213 28-1382); assay: 125I-insulin competition SPA, hIR-A membranes, 0.1% HSA
T1 construct: membranes of stably transfected HEK293 cells; also called hIR-A; human IR-A

{"binder": "INS Analog 17 (other, single-chain insulin B-L2-A-L1-VHH fusion; also called Ex. 17) FVSQHLCGSHLVEALRLVCGERGFFYTPKTGGGGGGGIVEQCCHSICSLYQLENYCGPGPAPGPAPGPAPGPAPGPAPGPAPGPAPGPAEVQLLESGGGLVQPGGSLRLSCAASGRYIDETAVAWFRQAPGKEREFVAGIGGGVDITYYADSVKGRFTISRDNSKNTLYLQMNSLRPEDTAVYYCAARPGRPLITSKVADLYPYWGQGTLVTVSSPP", "Ki": "31.3 nM"}
{"binder": "INS Analog 14 (other, single-chain insulin B-L2-A-L1-VHH fusion; also called Ex. 14) FVSQHLCGSHLVEALRLVCGERGFFYTPKTGGGGGGGIVEQCCTSICSLYQLENYCGPGPAPGPAPGPAPGPAPGPAPGPAPGPAPGPAEVQLLESGGGLVQPGGSLRLSCAASGRYIDETAVAWFRQAPGKEREFVAGIGGGVDITYYADSVKGRFTISRDNSKNTLYLQMNSLRPEDTAVYYCAARPGRPLITSKVADLYPYWGQGTLVTVSSPP", "Ki": "124 nM"}
{"binder": "INS Analog 11 (other, single-chain insulin B-L2-A-L1-VHH fusion; also called Ex. 11) FVSQHLCGSHLVEALHLVCGERGFFYTPKTGGGGGGGIVEQCCHSICSLEQLENYCGPGPAPGPAPGPAPGPAPGPAPGPAPGPAPGPAEVQLLESGGGLVQPGGSLRLSCAASGRYIDETAVAWFRQAPGKEREFVAGIGGGVDITYYADSVKGRFTISRDNSKNTLYLQMNSLRPEDTAVYYCAARPGRPLITSKVADLYPYWGQGTLVTVSSPP", "Ki": "31.8 nM"}
{"binder": "INS Analog 7 (other, single-chain insulin B-L2-A-L1-VHH fusion; also called Ex. 7) FVSQHLCGSHLVEALYLVCGERGFFYTPKTGGGGGGGIVEQCCTSICSLYQLENYCGPGPAPGPAPGPAPGPAPGPAPGPAPGPAPGPAEVQLLESGGGLVQPGGSLRLSCAASGRYIDETAVAWFRQAPGKEREFVAGIGGGVDITYYADSVKGRFTISRDNSKNTLYLQMNSLRPEDTAVYYCAARPGRPLITSKVADLYPYWGQGTLVTVSSPP", "Ki": "36.3 nM"}
{"binder": "INS Analog 13 (other, single-chain insulin B-L2-A-L1-VHH fusion; also called Ex. 13) FVSQHLCGSHLVEALHLVCGERGFHYTPKTGGGGGGGIVEQCCHSICSLEQLENYCGPGPAPGPAPGPAPGPAPGPAPGPAPGPAPGPAEVQLLESGGGLVQPGGSLRLSCAASGRYIDETAVAWFRQAPGKEREFVAGIGGGVDITYYADSVKGRFTISRDNSKNTLYLQMNSLRPEDTAVYYCAARPGRPLITSKVADLYPYWGQGTLVTVSSPP", "Ki": "34.6 nM"}
{"binder": "INS Analog 18 (other, single-chain insulin B-L2-A-L1-VHH fusion; L1 is (PGPA)8; also called Ex. 18) FVSQHLCGSHLVEALRLVCGERGFHYTPKTGGGGGGGIVEQCCHSICSLYQLENYCGPGPAPGPAPGPAPGPAPGPAPGPAPGPAPGPAEVQLLESGGGLVQPGGSLRLSCAASGRYIDETAVAWFRQAPGKEREFVAGIGGGVDITYYADSVKGRFTISRDNSKNTLYLQMNSLRPEDTAVYYCAARPGRPLITSKVADLYPYWGQGTLVTVSSPP", "Ki": "518 nM"}
{"binder": "INS Analog 12 (other, single-chain insulin B-L2-A-L1-VHH fusion; also called Ex. 12) FVSQHLCGSHLVEALHLVCGERGFHYTPKTGGGGGGGIVEQCCHSICSLYQLENYCGPGPAPGPAPGPAPGPAPGPAPGPAPGPAPGPAEVQLLESGGGLVQPGGSLRLSCAASGRYIDETAVAWFRQAPGKEREFVAGIGGGVDITYYADSVKGRFTISRDNSKNTLYLQMNSLRPEDTAVYYCAARPGRPLITSKVADLYPYWGQGTLVTVSSPP", "Ki": "42.3 nM"}
{"binder": "INS Analog 29 (other, single-chain insulin B-L2-A-L1-VHH fusion; also called Ex. 29) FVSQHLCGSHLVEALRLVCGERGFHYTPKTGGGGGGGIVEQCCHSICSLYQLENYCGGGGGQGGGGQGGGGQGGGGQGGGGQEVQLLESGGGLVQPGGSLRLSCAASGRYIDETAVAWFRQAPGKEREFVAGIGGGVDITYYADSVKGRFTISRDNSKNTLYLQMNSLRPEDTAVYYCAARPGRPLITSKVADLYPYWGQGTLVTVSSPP", "Ki": "28.2 nM"}
{"binder": "INS Analog 25 (other, single-chain insulin B-L2-A-L1-VHH fusion; also called Ex. 25) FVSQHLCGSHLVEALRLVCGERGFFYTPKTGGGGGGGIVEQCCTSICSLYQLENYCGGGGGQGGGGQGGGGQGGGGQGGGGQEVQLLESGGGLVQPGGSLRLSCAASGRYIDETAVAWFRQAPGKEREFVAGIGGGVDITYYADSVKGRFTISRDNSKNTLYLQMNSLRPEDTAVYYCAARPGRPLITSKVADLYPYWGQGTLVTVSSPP", "Ki": "125 nM"}
{"binder": "INS Analog 30 (other, single-chain insulin B-L2-A-L1-VHH fusion; also called Ex. 30) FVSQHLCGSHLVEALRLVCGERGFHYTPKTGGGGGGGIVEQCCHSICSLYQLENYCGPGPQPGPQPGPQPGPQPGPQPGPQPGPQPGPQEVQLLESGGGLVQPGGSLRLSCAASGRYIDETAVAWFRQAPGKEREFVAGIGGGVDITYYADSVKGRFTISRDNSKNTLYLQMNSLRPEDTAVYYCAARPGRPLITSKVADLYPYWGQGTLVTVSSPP", "Ki": "17.2 nM"}
{"binder": "INS Analog 26 (other, single-chain insulin B-L2-A-L1-VHH fusion; also called Ex. 26) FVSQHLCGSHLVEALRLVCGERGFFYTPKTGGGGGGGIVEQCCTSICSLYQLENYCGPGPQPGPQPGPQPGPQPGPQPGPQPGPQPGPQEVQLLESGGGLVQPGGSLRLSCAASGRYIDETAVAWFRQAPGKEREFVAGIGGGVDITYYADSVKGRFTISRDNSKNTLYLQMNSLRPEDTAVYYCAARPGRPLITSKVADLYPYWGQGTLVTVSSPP", "Ki": "40.6 nM"}
{"binder": "INS Analog 2 (other, single-chain insulin B-L2-A-L1-VHH fusion; also called Ex. 2) FVDQHLCGSHLVEALYLVCGERGFFYTPKTGGGGGGGIVEQCCTSICSLYQLENYCGPGPAPGPAPGPAPGPAPGPAPGPAPGPAPGPAEVQLLESGGGLVQPGGSLRLSCAASGRTVSSTAVAWFRQAPGKEREFVAGIGGSVDITYYADSVKGRFTISRDNSKNTLYLQMNSLRPEDTAVYYCAVRPGRPLITSRDANLYDYWGQGTLVTVSS", "Ki": "31.9 nM"}
